# TARGET UNDER TEST: recombinant human hepatic type GK (GST-hGK2) (Homo sapiens, UniProt P35557)
# Construct: made in house; host or cells: Escherichia coli BL21
# PROTOCOL NOTES: Measurement of glucokinase (GK) activation
# Assay type: biochemical
# ASSAY CONDITIONS: 10 min; test compound final concentration 10 μM; 5 mM glucose; 27° C.; increase of absorbance at 340 nm during first 10 minutes vs DMSO; read-out: GK activation (%)
# cutoff 300% applies to activation at 10 µM; >= gives true (1), < gives false (0)

*Q* Please indicate if the recorded activation at 10 µM for "CC(C)(O)COc1cnc(NC(=O)[C@H](C[C@H]2CCC(=O)C2)c2ccc(S(=O)(=O)C3CC3)c(C3CC3)c2)cn1" meets or exceeds 300%.
*A* true (1)

*Q* In plain terms: is recorded activation at 10 µM at least 300% for "Cc1cnc(NC(=O)/C(=C/[C@H]2CCC(=O)C2)c2ccc(S(=O)(=O)C3CC3)c(C3CC3)c2)s1" ?
*A* false (0)

*Q* # bool: activation at 10 µM of "CC(=O)c1cnc(NC(=O)[C@H](C[C@H]2CCC(=O)C2)c2ccc(S(=O)(=O)C3CC3)c(C3CC3)c2)cn1" >= 300%
*A* true (1)

*Q* I'd appreciate it if you could say whether O=C(Nc1ccn(CC(O)CO)n1)/C(=C/C1CCCC1)c1ccc(S(=O)(=O)C2CC2)c(C2CC2)c1 (stereo in doubt) has activation at 10 µM at least equal to 300%.
*A* true (1)

*Q* Reported activation at 10 µM at or above 300%? "Cc1cnc(NC(=O)[C@H](C[C@H]2CCC(=O)C2)c2ccc(S(=O)(=O)C3CC3)c(C3CC3)c2)cn1"
*A* true (1)

*Q* Quick check, activation at 10 µM >= 300%? Cn1ccc(NC(=O)[C@H](C[C@H]2CCC(O)C2)c2ccc(S(=O)(=O)C3CC3)c(C3CC3)c2)n1 (stereo partly shown)
*A* false (0)

*Q* Please check the record "CC(=O)c1csc(NC(=O)[C@H](C[C@H]2CCC(=O)C2)c2ccc(S(=O)(=O)C3CC3)c(C3CC3)c2)n1" and state if its activation at 10 µM is at or above 300%.
*A* true (1)

---

# TARGET UNDER TEST: recombinant human hepatic type GK (GST-hGK2) (Homo sapiens, UniProt P35557)
# Construct: made in house; host or cells: Escherichia coli BL21
# PROTOCOL NOTES: Measurement of glucokinase (GK) activation
# Type: biochemical
# ASSAY CONDITIONS: 10 min; test compound final concentration 10 μM; 5 mM glucose; 27° C.; increase of absorbance at 340 nm during first 10 minutes vs DMSO; read-out: GK activation (%)
# Description: The present test was carried out in accordance with the method described in Science 301: 370-373, 2003 and with partial modification thereof. Hereinafter, the summary is described. First, the cloning of GK (GenBank No. AK122876) was carried out. 5′-[…]-3′(SEQ ID NO: 1) and 5′-[…]-3′(SEQ ID NO: 2) were used as primers, and pME18S-FL3-Glucokinase isoform 2 was used as a template to carry out PCR. […]
ENDPOINT: activation at 10 µM (%)
Answer with a number only, understood to be in %.

*Q* Look up and state reported activation at 10 µM for "O=C1CC[C@H](/C=C(/C(=O)Nc2nc3ccc(OCCO)nc3s2)c2ccc(S(=O)(=O)C3CC3)c(C3CC3)c2)C1"
*A* 418

*Q* Recall and state the measured activation at 10 µM for "O=C1CC[C@H](/C=C(/C(=O)Nc2nc([C@H](O)CO)cs2)c2ccc(S(=O)(=O)C3CC3)c(C3CC3)c2)C1" .
*A* 391

*Q* Look up activation at 10 µM of "O=C1CC[C@H](C[C@@H](C(=O)Nc2cnc(Cl)cn2)c2ccc(S(=O)(=O)C3CC3)c(C3CC3)c2)C1" and report it.
*A* 282

*Q* Give a short answer stating reported activation at 10 µM for Cc1cnc(NC(=O)/C(=C/C2CCC(=O)C2)c2ccc(S(=O)(=O)C3CC3)c(C3CC3)c2)cn1 (stereo not shown) .
*A* 387

*Q* Quote activation at 10 µM reported for "O=C1CC[C@H](C[C@@H](C(=O)Nc2cnc(CO)cn2)c2ccc(S(=O)(=O)C3CC3)c(C3CC3)c2)C1" please.
*A* 284

*Q* Hello, please tell me recorded activation at 10 µM for this one: "O=C(Nc1ccn(CCCO)n1)/C(=C/C1CCCC1)c1ccc(S(=O)(=O)C2CC2)c(C2CC2)c1"
*A* 330

*Q* Give reported activation at 10 µM value for "O=C1CC[C@H](/C=C(/C(=O)Nc2ncc(Cl)s2)c2ccc(S(=O)(=O)C3CC3)c(C3CC3)c2)C1"
*A* 362

*Q* # return recorded activation at 10 µM for input "Cn1ccc(NC(=O)/C(=C/[C@@H]2CCC(=O)C2)c2ccc(S(=O)(=O)C3CC3)c(C3CC3)c2)n1"
*A* 260

*Q* Return value of activation at 10 µM for input "O=C(Nc1ncc(Cl)s1)/C(=C/C1CCOCC1)c1ccc(S(=O)(=O)C2CC2)c(C2CC2)c1" , no commentary.
*A* 231

*Q* Item "O=C1CC[C@H](/C=C(/C(=O)Nc2nc(CF)cs2)c2ccc(S(=O)(=O)C3CC3)c(C3CC3)c2)C1" : provide activation at 10 µM
*A* 392

---

Please provide measured activation at 10 µM for the entries that follow.
# TARGET UNDER TEST: recombinant human hepatic type GK (GST-hGK2) (Homo sapiens, UniProt P35557)
# Construct: made in house; host or cells: Escherichia coli BL21
# Sequence (P35557 1-466 isoform P35557-2): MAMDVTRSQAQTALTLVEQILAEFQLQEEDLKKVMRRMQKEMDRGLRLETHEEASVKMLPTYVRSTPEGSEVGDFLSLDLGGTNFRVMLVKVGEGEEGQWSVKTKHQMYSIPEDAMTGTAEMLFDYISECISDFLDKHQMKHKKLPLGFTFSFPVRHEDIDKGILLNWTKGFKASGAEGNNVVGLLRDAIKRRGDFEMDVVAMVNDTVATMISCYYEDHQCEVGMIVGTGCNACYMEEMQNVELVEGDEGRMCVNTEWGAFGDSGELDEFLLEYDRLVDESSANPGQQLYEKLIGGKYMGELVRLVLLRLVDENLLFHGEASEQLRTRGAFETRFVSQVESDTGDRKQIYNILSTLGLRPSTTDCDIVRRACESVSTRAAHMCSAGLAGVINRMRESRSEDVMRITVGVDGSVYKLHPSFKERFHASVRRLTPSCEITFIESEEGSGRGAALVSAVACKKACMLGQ
# PROTOCOL NOTES: Measurement of glucokinase (GK) activation
# Assay type: biochemical
# ASSAY CONDITIONS: 10 min; test compound final concentration 10 μM; 5 mM glucose; 27° C.; increase of absorbance at 340 nm during first 10 minutes vs DMSO; read-out: GK activation (%)
Answer with a number only, understood to be in %.

*Q* Give the measured activation at 10 µM for "O=C(Nc1ccn(C[C@H](O)CO)n1)/C(=C/C1CCCC1)c1ccc(S(=O)(=O)C2CC2)c(C2CC2)c1"
*A* 309

*Q* // fetch activation at 10 µM given entry "CC(C)(O)c1cnc(NC(=O)[C@H](C[C@H]2CCC(=O)C2)c2ccc(S(=O)(=O)C3CC3)c(C3CC3)c2)cn1"
*A* 307

*Q* Quick one: give measured activation at 10 µM for "O=C1CC[C@H](/C=C(/C(=O)Nc2ncc(F)s2)c2ccc(S(=O)(=O)C3CC3)c(C3CC3)c2)C1"
*A* 297
